# SYSTEM: T1, UNK ZnF1-6 (called full-length) (human, UniProt Q9C0B0 30-357)
# T1 sequence: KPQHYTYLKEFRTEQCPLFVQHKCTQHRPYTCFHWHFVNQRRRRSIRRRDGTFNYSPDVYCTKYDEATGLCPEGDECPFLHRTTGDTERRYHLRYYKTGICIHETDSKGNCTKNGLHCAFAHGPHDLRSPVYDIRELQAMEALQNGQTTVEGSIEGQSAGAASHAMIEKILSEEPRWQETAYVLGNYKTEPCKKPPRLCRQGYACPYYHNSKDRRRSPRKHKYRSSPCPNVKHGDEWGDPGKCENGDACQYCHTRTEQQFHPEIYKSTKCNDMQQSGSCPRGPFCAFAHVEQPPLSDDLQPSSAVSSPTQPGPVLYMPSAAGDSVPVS
# EXPERIMENT SUMMARY: nsRBNS (natural sequence RNA bind-n-seq); RBNS binding buffer (assumed for nsRBNS): 25 mM Tris pH 7.5, 150 mM KCl, 3 mM MgCl2, 0.01% Triton X-100, 500 ug/ml BSA, 20 U/ml SUPERase-In, 4 C; UNK is unkempt and MSI1 is Musashi-1; names of the RNAs are library labels; protein concentration not given here; high values mean tight binding
Whole data set: some 5,800 sequences, median “enrichment r” near 0.68, cut for the highest 2% near 11. Shown is part of a subset that was picked to be rich in the highest values.
Please mark Satisfied if the recorded binding signal is equal to or greater than 3 enrichment R, and Not satisfied if it falls below.

chr1:18907414:18907603:-|3pUTR|ENSG00000169991|msi1|total|mutant (ssRNA) RNA: GGGAGUUCUACAGUCCGACGAUCCCUUGAUUUCCCUGAUAACUUGAUGUUCUUCCCUCCCUCGCCAGCCAACAACCGAGGCUCCGAGAUCUGUAAUUUCUCUGUGAGAAAGUCUGAAGGGGCCAGGCCUGGUCUCUGCUCCCUCAACAGAGGAUUGAGCAUCA ... Not satisfied

Proceed to the following item.
*Q* Is binding signal for chr11:10797513:10797714:-|3pUTR|ENSG00000110321|msi1_unk|FALSE|overlapping (ssRNA) RNA: GGGAGUUCUACAGUCCGACGAUCUUCUGCAUAAGGUUUUUUUGUAGUGUAAUGUCUUAAUCAUAGUCUACCAUCAAAUAUUUUAGGAGUAUCUUUAAUGUUUAGAUAGUAUAUUAGCAGCAUGCAAUAAUUACAUCAUAAGUUCAACAGAGGAUUGAGCAUCA at or above 3 enrichment R?
*A* Not satisfied
